# experimentalSystem: FZD1 cysteine-rich domain (CRD), MYC-tagged and GPI-anchored on CHO cells (human)
# runDescription: flow cytometry, CHO-CRD cells;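 further: flow cytometry of Fab binding to CHO cells overexpressing a Frizzled CRD, with binding defined as median fluorescence over twice that of CHO cells lacking any Frizzled CRD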
Recorded median fluorescence for the following binders
assayMetric: median fluorescence

INSERT INTO measurements (binder, observedresult) VALUES
  ('Fab-2899 (Fab, V domains shown, Fab; also called Fv-2899) VH: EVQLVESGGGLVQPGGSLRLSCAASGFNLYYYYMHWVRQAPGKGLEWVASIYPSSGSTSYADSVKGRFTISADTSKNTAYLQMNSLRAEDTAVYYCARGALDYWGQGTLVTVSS VL: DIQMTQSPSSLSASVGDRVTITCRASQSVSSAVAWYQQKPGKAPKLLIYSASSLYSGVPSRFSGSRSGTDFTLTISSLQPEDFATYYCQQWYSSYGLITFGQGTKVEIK', 19.5),
  ('Fab-2934 (Fab, V domains shown, Fab; also called Fv-2934) VH: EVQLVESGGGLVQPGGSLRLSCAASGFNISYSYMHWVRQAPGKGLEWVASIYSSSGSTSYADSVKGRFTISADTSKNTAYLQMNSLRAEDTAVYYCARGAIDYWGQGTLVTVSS VL: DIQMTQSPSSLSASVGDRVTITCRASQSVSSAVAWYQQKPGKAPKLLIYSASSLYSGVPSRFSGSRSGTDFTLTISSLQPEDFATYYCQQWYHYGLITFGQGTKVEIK', 61.5),
  ('Fab-2923 (Fab, V domains shown, Fab; also called Fv-2923) VH: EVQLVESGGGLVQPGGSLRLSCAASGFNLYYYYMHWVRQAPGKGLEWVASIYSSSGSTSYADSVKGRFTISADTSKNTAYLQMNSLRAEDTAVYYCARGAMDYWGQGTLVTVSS VL: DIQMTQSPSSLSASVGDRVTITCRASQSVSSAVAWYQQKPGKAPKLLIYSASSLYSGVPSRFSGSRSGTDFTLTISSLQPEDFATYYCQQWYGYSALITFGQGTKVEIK', 6.04),
  ('Fab-2932 (Fab, V domains shown, Fab; also called Fv-2932) VH: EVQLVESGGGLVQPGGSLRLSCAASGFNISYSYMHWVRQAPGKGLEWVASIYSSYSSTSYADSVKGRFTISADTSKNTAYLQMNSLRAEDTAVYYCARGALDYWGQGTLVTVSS VL: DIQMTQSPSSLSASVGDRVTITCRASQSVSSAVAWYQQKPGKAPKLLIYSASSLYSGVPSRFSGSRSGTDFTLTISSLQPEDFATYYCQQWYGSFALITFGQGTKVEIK', 16.6),
  ('Fab-2927 (Fab, V domains shown, Fab; also called Fv-2927) VH: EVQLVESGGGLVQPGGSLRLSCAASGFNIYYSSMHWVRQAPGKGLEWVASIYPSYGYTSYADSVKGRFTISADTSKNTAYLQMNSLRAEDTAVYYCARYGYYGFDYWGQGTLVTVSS VL: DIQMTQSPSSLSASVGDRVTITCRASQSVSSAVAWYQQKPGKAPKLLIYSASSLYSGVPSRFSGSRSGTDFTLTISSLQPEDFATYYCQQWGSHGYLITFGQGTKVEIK', 18.7),
  ('Fab-2916 (Fab, V domains shown, Fab) VH: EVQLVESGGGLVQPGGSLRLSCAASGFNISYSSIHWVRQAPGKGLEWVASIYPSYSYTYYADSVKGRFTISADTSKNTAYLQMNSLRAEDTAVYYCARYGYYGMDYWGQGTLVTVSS VL: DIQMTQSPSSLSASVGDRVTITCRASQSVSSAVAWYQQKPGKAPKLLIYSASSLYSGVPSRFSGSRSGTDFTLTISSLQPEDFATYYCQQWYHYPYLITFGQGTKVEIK', 34.3),
  ('Fab-2904 (Fab, V domains shown, Fab; also called Fv-2904) VH: EVQLVESGGGLVQPGGSLRLSCAASGFNIYSYSMHWVRQAPGKGLEWVAYISSSYGYTSYADSVKGRFTISADTSKNTAYLQMNSLRAEDTAVYYCARSWYAWAMDYWGQGTLVTVSS VL: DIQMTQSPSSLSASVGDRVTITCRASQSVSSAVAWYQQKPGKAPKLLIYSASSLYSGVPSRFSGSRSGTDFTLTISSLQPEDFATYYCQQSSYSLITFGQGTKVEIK', 15.5),
  ('Fab-2909 (Fab, V domains shown, Fab; also called Fv-2909) VH: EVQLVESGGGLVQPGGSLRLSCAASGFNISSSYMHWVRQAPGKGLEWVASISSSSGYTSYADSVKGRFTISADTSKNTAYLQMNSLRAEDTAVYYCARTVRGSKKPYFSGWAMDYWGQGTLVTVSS VL: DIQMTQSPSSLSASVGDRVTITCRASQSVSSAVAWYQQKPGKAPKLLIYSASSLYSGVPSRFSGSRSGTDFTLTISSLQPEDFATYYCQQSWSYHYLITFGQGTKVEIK', 4.61);
